Value source: PubChem BioAssay (NCI)

- System: SF-295 CNS
- method.summary: NCI-60 one-dose screen, 48 h
- conditions.used: 10 µM unless noted
The panel holds about 83,000 compounds, 20% with a hit somewhere; the sample as a whole holds those more often. Active and inactive are the calls of the source. Rule for the calls: active = growth percent below 10; inactive = the rest.
Choose one outcome from this list and give only that: Y = active, N = inactive

Solved entries (count: 7):
compound	assigned.class
CC(C)OP(=O)(CCC(=O)c1c[nH]c2ccccc12)OC(C)C	N
CCOc1cccc(/C=N/NC(=O)c2ccccc2Nc2ccnc(C(F)(F)F)c2)c1O	N
CCc1cc2c(c3ccc(C(=O)CBr)cc13)CCCC2	N
CCN(CCO)CCCOc1ccc2c(Nc3cc(CC(=O)Nc4cccc(F)c4)[nH]n3)ncnc2c1	N
CO[C@H]1C[C@@H]2CC[C@@H](C)[C@@](O)(O2)C(=O)C(=O)N2CCCC[C@H]2C(=O)O[C@H]([C@H](C)C[C@@H]2CC[C@@H](OCCO)[C@H](OC)C2)CC(=O)[C@H](C)/C=C(\C)[C@@H](O)[C@H](OC)C(=O)[C@H](C)C[C@H](C)\C=C/C=C/C=C/1C	N
C=CC(=O)N1CCC[C@@H](n2nc(-c3ccc(Oc4ccccc4)cc3)c3c(N)ncnc32)C1	N
FC(F)(F)c1ccc(CNc2ccc(Cc3c[nH]c4ncc(Cl)cc34)cn2)cn1	N

From here, focus on the item given below.
stdin: Dear colleague, could you share the recorded outcome for CO[C@H](C(=O)N[C@@H](CCCCNC(=O)OCc1ccccc1)C(=O)OC(C)(C)C)[C@@H]1Cc2cc3cc(OC4CC(OC5CC(O)C(O)C(C)O5)C(O)C(C)O4)c(C)c(O)c3c(O)c2C(=O)[C@H]1OC1CC(OC2CC(OC3CC(C)(O)C(O)C(C)O3)C(O)C(C)O2)C(O)C(C)O1 (stereo partly drawn) when you have a moment?
stdout: Y
